- target_or_test_system: human TLR9 (Homo sapiens)
- Construct: host or cells: HEK-Blue cells (HEK293-derived reporter line)
- Sequence (Q9NR96 26-1032): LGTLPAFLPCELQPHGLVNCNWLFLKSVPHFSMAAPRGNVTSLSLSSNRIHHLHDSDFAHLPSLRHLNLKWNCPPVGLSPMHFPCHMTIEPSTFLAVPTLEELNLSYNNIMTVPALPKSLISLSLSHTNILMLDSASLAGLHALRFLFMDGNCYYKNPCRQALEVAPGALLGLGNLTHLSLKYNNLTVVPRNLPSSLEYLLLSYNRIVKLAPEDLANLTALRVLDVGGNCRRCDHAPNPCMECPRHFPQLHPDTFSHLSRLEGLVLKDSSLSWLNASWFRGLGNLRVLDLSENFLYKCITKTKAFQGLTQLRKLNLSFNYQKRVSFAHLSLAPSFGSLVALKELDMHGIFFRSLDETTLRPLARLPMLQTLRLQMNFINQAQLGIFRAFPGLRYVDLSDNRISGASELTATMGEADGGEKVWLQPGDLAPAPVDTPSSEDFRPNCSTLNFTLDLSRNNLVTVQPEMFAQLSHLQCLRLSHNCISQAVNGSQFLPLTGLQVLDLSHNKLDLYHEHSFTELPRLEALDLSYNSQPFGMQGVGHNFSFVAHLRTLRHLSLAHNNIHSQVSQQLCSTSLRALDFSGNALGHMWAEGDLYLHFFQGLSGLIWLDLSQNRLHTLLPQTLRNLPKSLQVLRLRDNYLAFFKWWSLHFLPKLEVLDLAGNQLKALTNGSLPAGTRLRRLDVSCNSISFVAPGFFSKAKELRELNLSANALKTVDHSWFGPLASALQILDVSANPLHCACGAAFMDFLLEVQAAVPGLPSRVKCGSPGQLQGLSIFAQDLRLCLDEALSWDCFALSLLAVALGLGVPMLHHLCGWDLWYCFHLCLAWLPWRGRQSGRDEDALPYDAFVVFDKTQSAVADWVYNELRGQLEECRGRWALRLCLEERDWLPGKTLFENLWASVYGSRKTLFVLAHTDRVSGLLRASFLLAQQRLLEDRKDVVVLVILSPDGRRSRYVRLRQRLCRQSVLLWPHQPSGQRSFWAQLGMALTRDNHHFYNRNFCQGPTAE
- assay_notes: TLR9 inhibition reporter assay (HEK-Blue cells, secreted embryonic alkaline phosphatase reporter)
- Assay type: cell-based
- applied_conditions: HEK-Blue cells overexpressing human TLR9, stimulated with ODN2006 5 nM, 22 hour incubation, reporter readout
pIC50: −log10 of the molar value.
Tag: Met if measured pIC50 is not below 7, Not met if it is.

INPUT: Quick check, pIC50 >= 7? Cc1c(C2CCN(C3CCN(C(C)C)CC3)CC2)ccc2nc(-c3ccc(S(C)(=O)=O)cc3)n(C)c12
OUTPUT: Not met

INPUT: Quick check, pIC50 >= 7? CC(C)N1CC2(CN(Cc3ccc(-c4cc(F)c5nc(-c6ccc(S(C)(=O)=O)cc6)n(C6CC6)c5c4)cc3)C2)C1
OUTPUT: Met

INPUT: Quick check, pIC50 >= 7? Cc1cc(C2CCN(C3CCN(CC(C)C)CC3)CC2)cc2[nH]c(-c3ccc4c(c3)OCCO4)nc12
OUTPUT: Not met

INPUT: Quick check, pIC50 >= 7? CN(C)C1CCN(Cc2ccc(-c3ccc4nc(-c5ccc(S(C)(=O)=O)cc5F)n(C)c4c3)cc2)CC1
OUTPUT: Not met

INPUT: Quick check, pIC50 >= 7? COc1ccc(-c2nc3c(C)cc(C4CCN(C5CC6CCC(C5)N6CC(C)C)CC4)cc3[nH]2)cc1OC (single isomer, unassigned) [Example 19]
OUTPUT: Met

INPUT: Quick check, pIC50 >= 7? COc1ccc(-c2nc3cc(C4CCN(C5CCN(C(C)C)CC5)CC4)c(C(F)(F)F)cc3[nH]2)cc1OC
OUTPUT: Not met

INPUT: Quick check, pIC50 >= 7? CC(C)N1C2CCC1CC(N1CCC(c3cc(F)c4nc(-c5ccc(S(C)(=O)=O)cc5)n(C5CC5)c4c3)CC1)C2 (single isomer, unassigned) [Example 116]
OUTPUT: Met

INPUT: Quick check, pIC50 >= 7? Cc1cc(C2CCN(C3CCN(CC(C)C)CC3)CC2)cc2[nH]c(-c3cccc(OC(F)F)c3)nc12
OUTPUT: Not met

INPUT: Quick check, pIC50 >= 7? COc1ccc(-c2nc3cc(C4CCN(C5CCN(C6CC6)CC5)CC4)ccc3n2C)cc1OC
OUTPUT: Not met

INPUT: Quick check, pIC50 >= 7? COc1ccc(-c2nc3c(C)cc(C4CCN(C5CCN(C6CC6)CC5)CC4)cc3[nH]2)cc1OC
OUTPUT: Met

INPUT: Quick check, pIC50 >= 7? CCn1c(-c2ccc(OC)c(OC)c2)nc2cc(C3CCN(C4CCN(CC(C)C)CC4)CC3)ccc21
OUTPUT: Not met

INPUT: Quick check, pIC50 >= 7? COc1ccc(-c2nc3c(C)cc(C4CCN(C5CCN(C6CC6)CC5)CC4)cc3n2C)cc1OC [Example 46, tris(2,2,2-trifluoroacetate)]
OUTPUT: Not met

INPUT: Quick check, pIC50 >= 7? CC(C)N1CCCC(N2CCC(c3ccc4nc(-c5ccc(S(C)(=O)=O)cc5)n(C)c4c3F)CC2)CC1 (single isomer, unassigned) [Example 113]
OUTPUT: Met

INPUT: Quick check, pIC50 >= 7? COc1ccc(-c2nc3cc(C4CCN(C5CCN(C(C)C)CC5)CC4)ccc3n2C(C)C)cc1OC
OUTPUT: Not met

INPUT: Quick check, pIC50 >= 7? Cc1cc(-c2ccc(C3CCN(C4CCOCC4)CC3)cc2)cc2c1nc(-c1ccc(S(C)(=O)=O)cc1)n2C
OUTPUT: Not met

INPUT: Quick check, pIC50 >= 7? CC(C)N1C2CCC1CC(N1CCC(c3ccc4nc(-c5ccc(S(C)(=O)=O)cc5)[nH]c4c3F)CC1)C2 (single isomer, unassigned) [Example 95]
OUTPUT: Met

INPUT: Quick check, pIC50 >= 7? Cc1cc(-c2ccc(CCN3CCC(C)(O)CC3)cc2)cc2c1nc(-c1ccc(S(C)(=O)=O)cc1)n2C
OUTPUT: Not met

INPUT: Quick check, pIC50 >= 7? Cc1cc(-c2ccc(C3CCN(C(C)C)CC3)nc2)cc2c1nc(-c1ccc(S(C)(=O)=O)cc1)n2C
OUTPUT: Not met
